Measurement record for BCAT1 (Homo sapiens); quantity recorded: IC50.
MEASUREMENT_NAME: IC50

• CNC(=O)c1ccc2c(c1)nc(-c1c(O)ccc(F)c1F)n2[C@H]1CCC[C@@H](NC(=O)c2ccc(Br)s2)C1 [Compound 180] = 500 to 1000 nM
• CC(=O)c1ccc2c(c1)nc(-c1ccccn1)n2[C@H]1CCC[C@@H](NC(=O)c2ccc(Br)s2)C1 [Compound 196] = ≥ 1000 nM
• CNC(=O)c1cc2nc(-c3ncccc3F)n([C@H]3CCC[C@@H](NC(=O)c4ccc(Br)s4)C3)c2cc1Cl [Compound 237] = ≥ 1000 nM
• CNC(=O)c1ccc2c(c1)nc(-c1ncccc1F)n2[C@H]1CCC[C@@H](NC(=O)c2ccc(C#N)s2)C1 [Compound 198] = 100 to 500 nM

Data origin, for the record: patent US20220274967A1
